# assay details: growth modulation of vineyard yeast isolate – strain RM11-1a, OD600, basal, 24 h, primary screen (AID 1177);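 note: cultures grown under basal conditions with no added stressor; test concentration not given here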
# assay conditions: S. cerevisiae RM11-1a growth, OD600, 24 h; higher = more signal, called active from +8 up or from −8 down
So I've got a bunch of compounds here, and I need their z-score values.
Give bare numbers.

# example entries with known answers
INSERT INTO assay_data (compound, measured_result) VALUES
  ('CCCC[C@@H](O)C1=C(COC)C[C@H]2C(=O)N(C)C(=O)[C@H]2[C@H]1CO', -2.16),
  ('Cc1cc(C)c(C(O)C2C=CC3C(=O)N(c4ccccc4)C(=O)C3N2Nc2ccccc2F)c(C)c1 (centres undefined)', 1.56),
  ('COC(=O)C1=CC(CCCO)=CC(c2cccs2)N(C)C=C1C(=O)OC (centres undefined)', 1.13),
  ('CCOC(=O)C[C@H]1[C@H](OC(=O)c2cc3ccccc3oc2=O)[C@@H](NC(=O)c2ccc3ccccc3n2)c2cc(OCCCO)ccc2N1C(=O)Cc1ccc(OC)cc1', 0.796),
  ('[N-]=[N+]=Nc1ccccc1[C@@H]1OC(c2ccc(OCCCO)cc2)=N[C@]1(Cc1ccccc1)C(=O)N1CCCCC1', 1.08),
  ('O=C(NCCN1CCOCC1)[C@@H]1c2ccccc2C(=O)N(Cc2ccccc2Cl)[C@H]1c1ccc(CO)cc1', 0.593);

# per-item lookup of z-score; items listed below
1. CCCC=C(CCC)[C@@H](NC(=O)C(C)(C)C)c1ccc(C(=O)OC)cc1
2. CC(C)c1ccc(NN2C(C(O)c3ccc(F)cc3)C=CC3C(=O)N(c4ccccc4)C(=O)C32)cc1 (centres undefined)

Response given:
1: 1.17; 2: 0.737

# per-item lookup of z-score; items listed below
1. O=c1cccc(-c2ccc([N+](=O)[O-])cc2)o1
2. CCCC=C(CCC)[C@@H](NS(=O)(=O)c1ccc(C(F)(F)F)cc1)c1ccccc1
3. C=C(COC)/C(=C/C[C@H](OC(=O)c1ccncc1)c1ccc(CO)o1)c1cnc2ccccc2c1

Response given:
1: -0.376; 2: 1.84; 3: 0.158

---

# assay details: compound effects on hepatocellular carcinoma cell viability – HepG2, calcein-AM fluorescence, 48 h, basal, profiling panel (AID 1164); note: test concentration not given here
# assay conditions: higher = more signal
So I've got a bunch of compounds here, and I need their z-score values.

# example entries with known answers
INSERT INTO assay_data (chemical_string, observed_property, measured_result) VALUES
  ('CN(C)CCCCCCNC(=O)[C@@H]1C[C@@H]2C(=O)N3CCC[C@H]3C(=O)N2[C@@H]1c1cccc(OCCO)c1', 'z-score', -0.679),
  ('NC(=O)[C@H]1[C@@H]2C(=O)O[C@@H](c3ccccc3)[C@@H](c3ccccc3)N2[C@@H](c2ccc(OCCO)cc2)[C@]12C(=O)Nc1ccc(C#CCCO)cc12', 'z-score', 0.456),
  ('COC(=O)[C@@]1(Cc2ccc(OC)cc2)[C@H]2c3cc(C(=O)N4CCCC4)n(CCc4c[nH]c5ccc(OC)cc45)c3C[C@H]2CN1C(=O)c1ccccc1', 'z-score', -0.636);

# per-item lookup of z-score; items listed below
1. CC[C@@H]1C=C(C(=O)O)[C@H](c2ccccc2)N1S(=O)(=O)c1ccc(C)cc1
2. CCCNC(=O)[C@@]1(C)c2ccccc2C(=O)N(c2ccc(C)cn2)[C@H]1c1ccc(CO)cc1
3. COCC(=C=CC[C@H](O)c1ccc(CO)o1)CCO

Response given:
1: -1.22; 2: -0.146; 3: 0.676

---

So I've got a bunch of compounds here, and I need their composite z-score values.
# subject of test: Epidermal growth factor receptor (Homo sapiens) (UniProt P00533)
# Sequence (P00533 whole entry, looked up): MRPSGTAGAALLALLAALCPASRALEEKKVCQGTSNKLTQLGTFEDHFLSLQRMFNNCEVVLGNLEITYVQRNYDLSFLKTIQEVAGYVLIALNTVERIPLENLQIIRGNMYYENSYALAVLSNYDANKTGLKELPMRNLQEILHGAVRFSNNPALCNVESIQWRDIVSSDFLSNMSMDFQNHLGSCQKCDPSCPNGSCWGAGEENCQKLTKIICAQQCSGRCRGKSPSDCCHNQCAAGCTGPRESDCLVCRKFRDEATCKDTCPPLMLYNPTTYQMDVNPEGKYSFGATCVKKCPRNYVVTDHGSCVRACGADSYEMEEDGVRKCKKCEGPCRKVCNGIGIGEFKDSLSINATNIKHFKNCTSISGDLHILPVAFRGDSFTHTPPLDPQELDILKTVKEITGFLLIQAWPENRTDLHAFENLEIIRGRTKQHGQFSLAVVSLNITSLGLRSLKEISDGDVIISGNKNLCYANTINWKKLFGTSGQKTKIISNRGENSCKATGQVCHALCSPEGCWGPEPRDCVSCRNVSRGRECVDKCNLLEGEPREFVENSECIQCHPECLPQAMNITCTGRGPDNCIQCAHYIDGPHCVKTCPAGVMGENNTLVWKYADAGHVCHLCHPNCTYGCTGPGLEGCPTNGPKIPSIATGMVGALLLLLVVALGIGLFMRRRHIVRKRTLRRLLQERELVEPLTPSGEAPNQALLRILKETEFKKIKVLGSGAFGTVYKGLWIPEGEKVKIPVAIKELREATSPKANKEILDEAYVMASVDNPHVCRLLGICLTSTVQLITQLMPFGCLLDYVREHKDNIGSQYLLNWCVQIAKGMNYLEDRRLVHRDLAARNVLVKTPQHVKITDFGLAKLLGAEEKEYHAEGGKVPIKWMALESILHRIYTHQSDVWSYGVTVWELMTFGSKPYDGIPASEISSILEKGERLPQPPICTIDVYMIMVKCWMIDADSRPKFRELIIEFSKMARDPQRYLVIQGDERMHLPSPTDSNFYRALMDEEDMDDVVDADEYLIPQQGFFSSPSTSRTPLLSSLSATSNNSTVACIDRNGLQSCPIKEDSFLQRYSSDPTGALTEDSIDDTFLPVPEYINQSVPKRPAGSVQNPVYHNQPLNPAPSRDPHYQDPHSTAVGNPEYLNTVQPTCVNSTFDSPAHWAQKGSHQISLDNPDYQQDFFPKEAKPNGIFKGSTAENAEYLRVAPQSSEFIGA
# assay details: compounds binding epidermal growth factor receptor – biochemical, small-molecule microarray, 635 nm fluorescence, primary screen (AID 1104);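 note: score merges 667 nm emission intensity with spot signal to noise over triplicate slides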
# assay conditions: EGFR binding, higher = more signal

# example entries with known answers
INSERT INTO results (compound, observed_property, measured_result) VALUES
  ('COCCCNC(=O)[C@@]1(Sc2ccc(C)cc2)CC(=O)N(C2Cc3ccccc3C2)[C@@H]1c1ccc(CO)cc1', 'composite z-score', -0.787),
  ('O=C1O[C@@H](c2ccccc2)[C@@H](c2ccccc2)N2[C@@H](c3ccc(O)cc3)[C@]3(C(=O)Nc4ccc(C#CCCO)cc43)[C@@H](C(=O)N3CCN(c4ncccn4)CC3)[C@H]12', 'composite z-score', 0.103),
  ('O=C1C2C=CC(C(O)C3CC=CCC3)N(Nc3ccccc3)C2C(=O)N1c1ccccc1 (stereo unspecified)', 'composite z-score', 0.303),
  ('COc1ccc([Si](C)(C)[C@H]2[C@H](CC(=O)N(CCO)Cc3ccccc3)O[C@@]3(C(=O)N(C)c4c(Br)cc(C)cc43)[C@@H]2C)cc1', 'composite z-score', 1.19);

# per-item lookup of composite z-score; items listed below
1. O=C(Cc1ccccc1)[C@H]1C2C=CCCC(c3ccccc3)=C2CN1Cc1ccccc1 (stereo partly specified)
2. CCCC[C@@H](O)C1=C(COc2ccccc2)C[C@H]2C(=O)N(Cc3ccccc3)C(=O)[C@H]2[C@H]1CO
3. CC1=C2[C@@H](CCc3ccccc3)OB(O)C[C@@H]2[C@@H]2C(=O)N(Cc3ccccc3)C(=O)[C@@H]2C1

Response given:
1: -0.097; 2: 0.357; 3: 0.427

# per-item lookup of composite z-score; items listed below
1. COCCOC(=O)N1C(=O)[C@@]2(c3cc(C#CCCO)ccc31)[C@H](c1ccc(OCCO)cc1)N1[C@H](c3ccccc3)[C@H](c3ccccc3)OC(=O)[C@H]1[C@@H]2C(=O)Nc1nc2ccccc2s1
2. C=C[C@H]1C(C(=O)OCC)=CC[C@@H](c2ccccc2)N1S(=O)(=O)c1ccc(C)cc1
3. C=CC[C@@]1(C(=O)NCCCOC)N=C(c2ccc(OCCCO)cc2)O[C@@H]1c1ccccc1N=[N+]=[N-]
4. CCCC[C@@H](O)C1=C(COC)C[C@H]2C(=O)N(Cc3ccccc3)C(=O)[C@H]2[C@H]1CO
5. COCCOC(=O)N1C(=O)[C@@]2(c3cc(C#CC4(O)CCCCCC4)ccc31)[C@H](C(=O)Nc1nc3ccccc3s1)[C@H]1C(=O)O[C@H](c3ccccc3)[C@H](c3ccccc3)N1[C@@H]2c1ccc(O)cc1
6. CCCCNC(=O)c1ccc(C#CC(C)(C)C)c(OC(C)=O)c1
7. Cc1ccc(S[C@]2(C(=O)O)CC(=O)N(C3CCCCC3)[C@@H]2c2ccc(CO)cc2I)cc1

Response given:
0.27
0.224
-0.276
0.26
0.605
0.841
-0.131

# per-item lookup of composite z-score; items listed below
1. CO[C@H]1O[C@H](CO)[C@@H](OC(=O)Nc2ccc(Br)cc2)[C@@H]2OC(=O)[C@@H](Cc3ccccc3)C/C=C/C[C@H](Cc3ccccc3)C(=O)O[C@@H]12
2. CN(C)C(=O)[C@@]1(Cc2ccccc2CN=[N+]=[N-])N=C(c2ccc(OCCCO)cc2)O[C@H]1c1ccccc1N=[N+]=[N-]

Response given:
[-0.265, -0.239]

---

# subject of test: Neurogenic locus notch homolog protein 3 (Homo sapiens) (UniProt Q9UM47)
# Sequence (Q9UM47 whole entry, looked up): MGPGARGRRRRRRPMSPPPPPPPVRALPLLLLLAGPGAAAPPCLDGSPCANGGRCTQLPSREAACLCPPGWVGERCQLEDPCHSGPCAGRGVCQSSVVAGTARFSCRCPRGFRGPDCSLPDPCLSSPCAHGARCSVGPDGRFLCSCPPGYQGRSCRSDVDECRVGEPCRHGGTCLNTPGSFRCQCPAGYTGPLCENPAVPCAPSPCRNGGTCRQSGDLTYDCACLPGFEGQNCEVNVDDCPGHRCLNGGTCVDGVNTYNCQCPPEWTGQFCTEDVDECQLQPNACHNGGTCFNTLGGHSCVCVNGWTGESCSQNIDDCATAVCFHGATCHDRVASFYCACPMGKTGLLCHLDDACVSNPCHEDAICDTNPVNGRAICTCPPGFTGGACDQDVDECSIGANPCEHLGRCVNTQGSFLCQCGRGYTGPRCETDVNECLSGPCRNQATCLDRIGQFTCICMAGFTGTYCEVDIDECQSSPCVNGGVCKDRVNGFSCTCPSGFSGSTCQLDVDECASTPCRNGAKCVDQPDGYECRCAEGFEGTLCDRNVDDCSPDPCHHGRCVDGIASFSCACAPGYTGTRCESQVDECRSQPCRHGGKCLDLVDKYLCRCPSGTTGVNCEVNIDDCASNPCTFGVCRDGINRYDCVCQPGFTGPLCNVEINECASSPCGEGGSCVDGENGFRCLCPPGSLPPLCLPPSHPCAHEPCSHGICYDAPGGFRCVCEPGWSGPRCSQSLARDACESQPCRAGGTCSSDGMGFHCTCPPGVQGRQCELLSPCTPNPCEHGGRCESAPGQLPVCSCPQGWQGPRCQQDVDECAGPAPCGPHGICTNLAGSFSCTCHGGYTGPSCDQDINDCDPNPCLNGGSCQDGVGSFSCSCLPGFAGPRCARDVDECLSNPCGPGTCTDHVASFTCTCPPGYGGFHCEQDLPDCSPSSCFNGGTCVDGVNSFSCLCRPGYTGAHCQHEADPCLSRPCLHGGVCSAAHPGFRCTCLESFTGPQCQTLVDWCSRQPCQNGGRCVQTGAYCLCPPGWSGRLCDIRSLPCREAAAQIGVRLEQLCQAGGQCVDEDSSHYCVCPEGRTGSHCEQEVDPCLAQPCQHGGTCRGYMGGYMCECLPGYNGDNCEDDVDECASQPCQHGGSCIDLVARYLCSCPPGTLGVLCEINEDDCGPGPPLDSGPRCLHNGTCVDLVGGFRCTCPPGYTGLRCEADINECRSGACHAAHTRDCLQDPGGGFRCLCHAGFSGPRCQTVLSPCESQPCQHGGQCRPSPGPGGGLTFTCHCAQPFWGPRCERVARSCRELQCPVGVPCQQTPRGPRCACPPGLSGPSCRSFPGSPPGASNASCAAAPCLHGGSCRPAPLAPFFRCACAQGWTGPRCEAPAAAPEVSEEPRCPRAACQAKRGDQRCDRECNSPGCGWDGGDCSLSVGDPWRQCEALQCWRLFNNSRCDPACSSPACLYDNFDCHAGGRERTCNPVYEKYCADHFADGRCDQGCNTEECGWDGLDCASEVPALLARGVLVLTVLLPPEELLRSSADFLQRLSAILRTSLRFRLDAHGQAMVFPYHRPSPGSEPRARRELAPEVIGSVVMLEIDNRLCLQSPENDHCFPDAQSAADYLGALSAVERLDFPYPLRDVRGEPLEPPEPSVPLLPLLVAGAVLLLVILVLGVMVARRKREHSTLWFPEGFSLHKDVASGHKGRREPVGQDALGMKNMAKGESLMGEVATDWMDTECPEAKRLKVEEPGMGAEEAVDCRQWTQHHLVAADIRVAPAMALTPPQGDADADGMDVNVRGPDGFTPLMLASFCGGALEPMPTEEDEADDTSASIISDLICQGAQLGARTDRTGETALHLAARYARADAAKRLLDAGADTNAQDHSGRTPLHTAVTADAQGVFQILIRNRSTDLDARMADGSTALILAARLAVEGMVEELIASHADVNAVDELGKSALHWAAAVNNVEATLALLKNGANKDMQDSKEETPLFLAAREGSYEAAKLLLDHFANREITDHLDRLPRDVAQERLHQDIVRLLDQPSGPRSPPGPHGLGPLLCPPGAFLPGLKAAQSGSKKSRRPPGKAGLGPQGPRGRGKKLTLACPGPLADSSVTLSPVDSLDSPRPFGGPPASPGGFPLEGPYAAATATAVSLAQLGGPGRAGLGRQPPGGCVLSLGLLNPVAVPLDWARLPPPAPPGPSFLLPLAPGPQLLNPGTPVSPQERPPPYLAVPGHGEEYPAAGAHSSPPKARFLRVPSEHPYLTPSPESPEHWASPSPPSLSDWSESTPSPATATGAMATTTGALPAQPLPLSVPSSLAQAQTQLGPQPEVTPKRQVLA
# assay details: small molecules binding NOTCH3 protein – biochemical, 635/667 nm fluorescence, primary screen (AID 1096)
# assay conditions: small-molecule microarray, 635 nm fluorescence, higher = more signal
observed property: composite z-score
Answers are plain numbers.

INSERT INTO measurements (molecule, measured_result) VALUES
  ('[N-]=[N+]=NCc1ccccc1[C@@H]1OC(c2ccc(OCCCO)cc2)=N[C@]1(CCS(=O)(=O)c1ccccc1)C(=O)O', 0.123),
  ('COC(=O)c1c(CC[C@@H](CO)NC(=O)N2CCC[C@H]2Cn2cc(C3(O)CCCCC3)nn2)oc(C(C)=O)c1C(=O)OC', 0.916),
  ('COc1cc(OC)c(C(O)C2C=CC3C(=O)N(Cc4ccccc4)C(=O)C3N2n2cnnc2)cc1Br (stereo unspecified)', 1.07),
  ('COCC(=C=CC[C@H](O)c1ccc(OCCO)cc1)CCO', 0.227),
  ('Cc1ccc(C(C)CC(O)C2C=CC3C(=O)N(c4ccccc4)C(=O)C3N2Nc2ccccc2)o1 (stereo unspecified)', 1.04);

# per-item lookup of composite z-score; items listed below
1. COCCOC(=O)N1C(=O)[C@@]2(c3cc(C#CC4(O)CCCCCC4)ccc31)[C@H](C(=O)Nc1nc3ccccc3s1)[C@H]1C(=O)O[C@H](c3ccccc3)[C@H](c3ccccc3)N1[C@@H]2c1ccc(O)cc1
2. C=CC[C@@H](OC(=O)Nc1ccc(SC)cc1)c1ccc(O)c(F)c1
3. COCCCNC(=O)[C@@]1(Sc2ccc(C)cc2)CC(=O)N(C2Cc3ccccc3C2)[C@@H]1c1ccc(CO)cc1
4. CCCCCC1=C2CNC(C)(C(=O)OC)C=C2C(C)C1=O (stereo unspecified)
5. COC(=O)C1=CC(CCCO)=CC(c2cccs2)N(Cc2cccc(OC(F)(F)F)c2)C=C1C(=O)OC (stereo unspecified)

Response given:
[1.04, -0.0238, -0.314, -0.426, 1.04]

Challenge: GET /values?readout=composite z-score&item= `CC[C@@H]1C=C(C(=O)O)[C@H](c2ccccc2)N1S(=O)(=O)c1ccc(C)cc1`
Response given: 0.981

Cited source: PubChem BioAssay
